Biological target: ATP-dependent translocase ABCB1 (Homo sapiens, UniProt P08183)
Sequence (P08183 whole entry): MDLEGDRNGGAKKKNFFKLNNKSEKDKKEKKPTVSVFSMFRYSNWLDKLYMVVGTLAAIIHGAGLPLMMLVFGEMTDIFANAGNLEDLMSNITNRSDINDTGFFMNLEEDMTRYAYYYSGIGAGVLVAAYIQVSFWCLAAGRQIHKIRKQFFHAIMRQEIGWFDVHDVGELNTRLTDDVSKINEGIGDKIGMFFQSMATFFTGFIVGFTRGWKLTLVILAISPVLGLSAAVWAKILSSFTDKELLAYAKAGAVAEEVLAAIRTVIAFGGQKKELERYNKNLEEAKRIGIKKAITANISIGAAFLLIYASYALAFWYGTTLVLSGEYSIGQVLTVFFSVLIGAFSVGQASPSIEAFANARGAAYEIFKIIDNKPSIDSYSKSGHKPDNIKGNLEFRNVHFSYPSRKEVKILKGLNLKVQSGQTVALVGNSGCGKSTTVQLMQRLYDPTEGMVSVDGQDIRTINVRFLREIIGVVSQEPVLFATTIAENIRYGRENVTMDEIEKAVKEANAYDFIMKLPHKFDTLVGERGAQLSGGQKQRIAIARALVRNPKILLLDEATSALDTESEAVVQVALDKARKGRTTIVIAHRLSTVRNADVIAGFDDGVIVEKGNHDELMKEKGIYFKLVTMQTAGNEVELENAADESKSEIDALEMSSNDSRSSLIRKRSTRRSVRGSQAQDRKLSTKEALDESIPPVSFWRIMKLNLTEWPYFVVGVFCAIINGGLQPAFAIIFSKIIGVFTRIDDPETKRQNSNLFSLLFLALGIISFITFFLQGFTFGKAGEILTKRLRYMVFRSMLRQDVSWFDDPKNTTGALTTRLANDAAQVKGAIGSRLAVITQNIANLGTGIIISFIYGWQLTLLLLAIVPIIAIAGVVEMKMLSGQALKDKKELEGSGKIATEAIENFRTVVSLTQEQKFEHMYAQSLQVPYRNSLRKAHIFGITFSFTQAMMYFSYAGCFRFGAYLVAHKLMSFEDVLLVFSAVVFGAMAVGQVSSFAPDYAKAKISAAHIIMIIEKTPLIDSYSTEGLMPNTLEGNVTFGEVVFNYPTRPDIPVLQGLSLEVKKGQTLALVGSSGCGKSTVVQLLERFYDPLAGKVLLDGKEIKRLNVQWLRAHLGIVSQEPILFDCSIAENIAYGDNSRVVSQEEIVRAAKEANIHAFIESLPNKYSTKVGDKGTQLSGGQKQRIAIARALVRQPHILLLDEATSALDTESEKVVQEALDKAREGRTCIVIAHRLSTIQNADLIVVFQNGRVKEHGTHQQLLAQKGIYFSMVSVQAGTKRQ
Details: spodoptera frugiperda, sf9, 20 µM
Description: Drug-stimulated Pgp ATPase activity ratio determined in MDR1-Sf9 cell membranes with test compound at a concentration of 20uM
Parameter: Ratio_ATPase activity. Scope: all listed entries.
Hey, just send me the number, nothing else.

// below: answered compounds
CC[C@H]1OC(=O)[C@H](C)[C@@H](O[C@H]2C[C@@](C)(OC)[C@@H](O)[C@H](C)O2)[C@H](C)[C@@H](O[C@@H]2O[C@H](C)C[C@H](N(C)C)[C@H]2O)[C@](C)(OC)C[C@@H](C)C(=O)[C@H](C)[C@@H](O)[C@]1(C)O [CLARITHROMYCIN]: 3.55
CNC(=C[N+](=O)[O-])NCCSCc1ccc(CN(C)C)o1 [RANITIDINE]: 1.23
CCC1=C[C@@H]2CN(C1)Cc1c([nH]c3ccccc13)[C@@](C(=O)OC)(c1cc3c(cc1OC)N(C)[C@H]1[C@@](O)(C(=O)OC)[C@H](OC(C)=O)[C@]4(CC)C=CCN5CC[C@]31[C@@H]54)C2 [VINORELBINE]: 1.15
C=C[C@H]1C[N@@]2CC[C@H]1C[C@@H]2[C@@H](O)c1ccnc2ccc(OC)cc12 [QUINIDINE]: 2.54
CC(=O)Nc1ccc(OCC(O)CNC(C)C)cc1 (stereo not given) [PRACTOLOL]: 1.42
COc1cc2c(c(OC)c1OC)-c1ccc(OC)c(=O)cc1[C@@H](NC(C)=O)CC2 [COLCHICINE]: 1.23
CC[C@H]1C(=O)Nc2ccc(F)cc2N1C(=O)OC(C)C [OPAVIRALINE]: 1.02
COC(=O)C1=C(C)NC(C)=C(C(=O)OCCN(C)Cc2ccccc2)C1c1cccc([N+](=O)[O-])c1 (stereo not given) [NICARDIPINE]: 5.39

What does the record list as Ratio_ATPase activity for CN(C)CCCN1c2ccccc2Sc2ccc(Cl)cc21 [CHLORPROMAZINE] ? 2.42

What do you get for COC(=O)[C@H]1[C@H]2C[C@@H]3c4[nH]c5cc(OC)ccc5c4CCN3C[C@H]2C[C@@H](OC(=O)c2cc(OC)c(OC)c(OC)c2)[C@@H]1OC [RESERPINE] ? 3.85

Next entry: CC(C)NCC(O)COc1cccc2ccccc12 (stereo not given) [PROPRANOLOL] 1.33

Then what about the compound CN/C(=N/CCSCc1nc[nH]c1C)NC#N [CIMETIDINE] ? 1.31

Subsequent entry: COc1cccc2c1C(=O)c1c(O)c3c(c(O)c1C2=O)C[C@@](O)(C(=O)CO)C[C@@H]3O[C@H]1C[C@H](N)[C@H](O)[C@H](C)O1 [DOXORUBICIN] 0.95

Could you do the same for CN(C)CCC(c1ccc(Cl)cc1)c1ccccn1 (racemic) [CHLORPHENIRAMINE] , please? 0.97

Moving on to COc1ccc(C[C@H](N)C(=O)N[C@H]2[C@@H](O)[C@H](n3cnc4c(N(C)C)ncnc43)O[C@@H]2CO)cc1 [PUROMYCIN] 1.21

###

Below: a set of entries, each annotated with reported Papp A→B.
Target: ATP-dependent translocase ABCB1 (MDR1) (Homo sapiens)
Experiment: in vitro
Conditions: dog, MDCK-MDR1, Papp
Description: Apparent permeability (Papp) from apical to basolateral side determined in MDR1-MDCKII cells
Dear colleague, please return just the value in ×10⁻⁶ cm/s, with no unit written.

Worked examples follow.
COc1cc2c(cc1OC)CN(CCc1ccc(NC(=O)c3cccc4c(=O)c5cccc(OC)c5[nH]c34)cc1)CC2: 0.212
CC[C@]1(O)C[C@H]2CN(CCc3c([nH]c4ccccc34)[C@@](C(=O)OC)(c3cc4c(cc3OC)N(C=O)[C@H]3[C@@](O)(C(=O)OC)[C@H](OC(C)=O)[C@]5(CC)C=CCN6CC[C@]43[C@@H]65)C2)C1: 0.236

Kindly consider the entry below.
Enter reported Papp A→B observed with ATP-dependent translocase ABCB1 (MDR1) (Homo sapiens) for `COc1cc(Cc2cnc(N)nc2N)cc(OC)c1OC` 7.39
